System: LAPC4 prostate cancer cells, which express the AKT1 E17K allele
protocol.description: Antiproliferative effects in LAPC4 cells (CellTiter Glo, 72 h)
Format: cell-based
assay.context: Homo sapiens, LAPC4, 72 h, read-out: LAPC4 proliferation IC50: GeoMean IC50
pIC50: −log10 of the molar value.
Give measured pIC50 for each item. Keep answers brief.

See these solved cases before continuing.
1. Nc1ncccc1-c1nc2ccc(-c3ccncc3)nc2n1-c1ccc2c(c1)CC[C@@H]2NC(=O)c1ccc(O)c(C=O)c1; 7.00 to 8.00
2. C#Cc1cc(O)c(C=O)cc1C(=O)N[C@H]1CCc2cc(-n3c(-c4cccnc4N)nc4ccc(-n5cccn5)nc43)ccc21; 5.70 to 7.00
3. COc1c(O)c(C=O)cc(C(=O)N[C@H]2CCc3cc(-n4c(-c5cccnc5N)nc5ccc(-n6cccn6)nc54)ccc32)c1F; 7.00 to 8.00
4. CN(C)C(=O)Nc1ccc(C(=O)N[C@H]2CCc3cc(-n4c(-c5cccnc5N)nc5ccc(-c6ccccc6)nc54)ccc32)cc1C=O; > 8.00
5. Nc1ncccc1-c1nc2ccc(-c3ccccc3)nc2n1-c1ccc2c(c1)CC[C@@H]2NC(=O)c1ccc(O)c(C=O)c1; 7.00 to 8.00

Provide pIC50 values for the following items, in order.
1. Cc1cnc(-c2ccc3nc(-c4cccnc4N)n(-c4ccc5c(c4)CC[C@@H]5NC(=O)c4ccc(O)c(C=O)c4)c3n2)s1
2. Nc1ncccc1-c1nc2ccc(-n3ccc(CO)n3)nc2n1-c1ccc2c(c1)CC[C@@H]2NC(=O)c1ccc(O)c(C=O)c1
3. Nc1ncccc1-c1nc2ccc(-n3ccc(-n4cccn4)n3)nc2n1-c1ccc2c(c1)CC[C@@H]2NC(=O)c1ccc(O)c(C=O)c1
4. Nc1ncccc1-c1nc2ccc(-n3ncc4c3COC4)nc2n1-c1ccc2c(c1)CC[C@@H]2NC(=O)c1ccc(O)c(C=O)c1
5. Nc1ncccc1-c1nc2ccc(-c3ccccc3)nc2n1-c1ccc2c(c1)CCC2C(=O)NCc1ccc(C=O)c(O)c1 (stereo not shown)
6. CSc1ccn(-c2ccc3nc(-c4cccnc4N)n(-c4ccc5c(c4)CC[C@@H]5NC(=O)c4ccc(O)c(C=O)c4)c3n2)n1
7. Cc1cnc(-c2ccc3nc(-c4cccnc4N)n(-c4ccc5c(c4)CC[C@@H]5NC(=O)c4cc(C=O)c(O)cc4F)c3n2)s1

Completion:
1: 7.00 to 8.00; 2: 7.00 to 8.00; 3: 7.00 to 8.00; 4: 7.00 to 8.00; 5: 7.00 to 8.00; 6: 7.00 to 8.00; 7: 7.00 to 8.00

====

Give measured pIC50 for each item. Keep answers brief.
system: AKT2 (Homo sapiens, UniProt P31751)
Sequence (P31751 whole entry): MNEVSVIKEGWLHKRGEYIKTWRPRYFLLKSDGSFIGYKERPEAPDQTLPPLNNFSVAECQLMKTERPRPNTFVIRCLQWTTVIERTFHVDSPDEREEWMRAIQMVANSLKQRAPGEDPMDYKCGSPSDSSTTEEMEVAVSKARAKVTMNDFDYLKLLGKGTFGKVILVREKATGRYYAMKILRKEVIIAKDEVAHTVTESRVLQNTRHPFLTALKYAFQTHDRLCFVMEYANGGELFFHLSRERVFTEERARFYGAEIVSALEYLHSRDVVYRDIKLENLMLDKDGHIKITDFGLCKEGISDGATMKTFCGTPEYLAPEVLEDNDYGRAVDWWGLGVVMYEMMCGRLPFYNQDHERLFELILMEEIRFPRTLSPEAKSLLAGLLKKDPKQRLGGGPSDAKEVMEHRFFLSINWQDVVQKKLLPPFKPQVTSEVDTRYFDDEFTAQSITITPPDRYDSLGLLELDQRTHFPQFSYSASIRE
protocol.description: Live cell target engagement by NanoBRET competitive probe displacement, AKT2
assay.context: transfected HEK293 cells, 2 h at 37° C., read-out: AKT2 IC50: GeoMean IC50
pIC50: −log10 of the molar value.

See these solved cases before continuing.
1. N#Cc1ccn(-c2ccc3nc(-c4cccnc4N)n(-c4ccc5c(c4)CC[C@@H]5NC(=O)c4ccc(O)c(C=O)c4)c3n2)n1 [Example 108]; ≤ 5.70
2. [2H]C(=O)c1cc(C(=O)N[C@H]2CCc3cc(-n4c(-c5cccnc5N)nc5ccc(-n6ccc(F)n6)nc54)ccc32)ccc1O [Example 190]; 5.70 to 7.00
3. C#Cc1cc(C(=O)N[C@H]2CCc3cc(-n4c(-c5cccnc5N)nc5ccc(-n6cccn6)nc54)ccc32)cc(C=O)c1O [Example 101]; 5.70 to 7.00
4. Nc1ncccc1-c1nc2ccc(-n3cccn3)nc2n1-c1ccc2c(c1)CC[C@@H]2NC(=O)c1cc(C=O)c(O)c(OC(F)F)c1 [Example 168]; 5.70 to 7.00
5. Nc1ncccc1-c1nc2ccc(-n3cccn3)nc2n1-c1ccc2c(c1)CC[C@@H]2N1Cc2cc(O)c(C=O)cc2C1=O [Example 208]; ≤ 5.70

Provide pIC50 values for the following items, in order.
1. Nc1ncccc1-c1nc2ccc(-c3ccc(F)cc3)nc2n1-c1ccc2c(c1)CC[C@@H]2NC(=O)c1ccc(O)c(C=O)c1 [Example 20]
2. Nc1ncccc1-c1nc2ccc(-c3ccccc3)nc2n1-c1ccc2c(c1)CC[C@@H]2NC(=O)c1cc(C=O)c(O)cc1F [Example 16]

Completion:
1: 5.70 to 7.00; 2: 7.00 to 8.00

Provide pIC50 values for the following items, in order.
1. C#Cc1c(C(=O)N[C@H]2CCc3cc(-n4c(-c5cccnc5N)nc5ccc(-n6cccn6)nc54)ccc32)ccc(O)c1C=O [Example 112]
2. Nc1ncccc1-c1nc2ccc(-n3ccnn3)nc2n1-c1ccc2c(c1)CC[C@@H]2NC(=O)c1ccc(O)c(C=O)c1 [Example 92]
3. Nc1ncccc1-c1nc2ccc(-c3cc4n(n3)CCC4)nc2n1-c1ccc2c(c1)CC[C@@H]2NC(=O)c1cc(C=O)c(O)cc1F [Example 247]

Completion:
1. 5.70 to 7.00
2. 5.70 to 7.00
3. 5.70 to 7.00

====

Give measured pIC50 for each item. Keep answers brief.
system: AKT2 (Homo sapiens, UniProt P31751)
protocol.description: Live cell target engagement by NanoBRET competitive probe displacement, AKT2
assay.context: transfected HEK293 cells, 2 h at 37° C., read-out: AKT2 IC50: GeoMean IC50
pIC50: −log10 of the molar value.

See these solved cases before continuing.
1) Nc1ncccc1-c1nc2ccc(-n3cccn3)nc2n1-c1ccc2c(c1)CC(O)C2NC(=O)c1ccc(O)c(C=O)c1 (stereo not shown); 5.70 to 7.00
2) CN1CCN(c2cc(-n3cccn3)nc3c2nc(-c2cccnc2N)n3-c2ccc3c(c2)CC[C@@H]3NC(=O)c2ccc(O)c(C=O)c2)CC1; 5.70 to 7.00

Provide pIC50 values for the following items, in order.
1. Nc1ncccc1-c1nc2ccc(-c3ccncc3)nc2n1-c1ccc2c(c1)CC[C@@H]2NC(=O)c1ccc(O)c(C=O)c1
2. CCc1cc(-n2cccn2)nc2c1nc(-c1cccnc1N)n2-c1ccc2c(c1)CC[C@@H]2NC(=O)c1ccc(O)c(C=O)c1

Completion:
1: 5.70 to 7.00; 2: 7.00 to 8.00

====

Give measured IC50 for each item. Keep answers brief.
system: AKT1 WT (Homo sapiens)
Sequence (P31749 whole entry): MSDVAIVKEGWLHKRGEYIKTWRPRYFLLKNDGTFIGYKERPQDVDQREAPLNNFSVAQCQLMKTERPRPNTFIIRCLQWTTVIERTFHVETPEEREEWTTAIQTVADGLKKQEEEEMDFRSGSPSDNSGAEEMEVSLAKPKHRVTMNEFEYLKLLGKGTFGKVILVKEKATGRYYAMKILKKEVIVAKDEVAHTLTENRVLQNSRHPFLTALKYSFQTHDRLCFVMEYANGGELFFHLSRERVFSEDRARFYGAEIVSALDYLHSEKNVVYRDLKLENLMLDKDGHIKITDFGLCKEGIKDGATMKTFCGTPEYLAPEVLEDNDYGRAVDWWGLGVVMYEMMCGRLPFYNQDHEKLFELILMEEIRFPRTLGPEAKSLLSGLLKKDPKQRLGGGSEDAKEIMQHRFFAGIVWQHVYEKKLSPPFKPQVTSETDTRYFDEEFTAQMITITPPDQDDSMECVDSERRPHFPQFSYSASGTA
protocol.description: Live cell target engagement by NanoBRET competitive probe displacement, AKT1 WT
assay.context: transfected HEK293 cells, 2 h at 37° C., read-out: AKT1 WT IC50: GeoMean IC50

See these solved cases before continuing.
1. Nc1ncccc1-c1nc2ccc(-n3cccn3)nc2n1-c1ccc2c(c1)CC[C@@H]2N1Cc2cc(O)c(C=O)cc2C1=O [Example 208]; ≥ 2000 nM
2. Nc1ncccc1-c1nc2ccc(-n3cccn3)nc2n1-c1ccc2c(c1)CC[C@@H]2n1c(=O)[nH]c2cc(O)c(C=O)cc2c1=O [Example 238]; ≥ 2000 nM
3. CC(=O)Nc1ccc(C(=O)N[C@H]2CCc3cc(-n4c(-c5cccnc5N)nc5ccc(C)nc54)ccc32)cc1C=O [Example 45]; 100 to 2000 nM
4. Nc1ncccc1-c1nc2ccc(-c3ccccc3)nc2n1-c1ccc2c(c1)CC[C@@H]2NC(=O)c1ccc(NC(=O)C(F)F)c(C=O)c1 [Example 52]; < 10 nM
5. Nc1ncccc1-c1nc2ccc(-c3ccn(C(F)F)n3)nc2n1-c1ccc2c(c1)CC[C@@H]2NC(=O)c1ccc(O)c(C=O)c1 [Example 113]; 10 to 100 nM
6. C#Cc1ccn(-c2ccc3nc(-c4cccnc4N)n(-c4ccc5c(c4)CC[C@@H]5NC(=O)c4ccc(O)c(C=O)c4)c3n2)n1 [Example 119]; 10 to 100 nM

Here's the next entry for you.
Prompt: Give the measured IC50 of Nc1ncccc1-c1nc2ccc(-c3ccccc3)nc2n1-c1ccc2c(c1)CC[C@@H]2NC(=O)c1cc(C=O)c2[nH]cnc2c1 [Example 162] .
Completion: < 10 nM

====

system: AKT1 E17K (Homo sapiens, UniProt P31749, E17K)
Sequence (P31749 whole entry E17K): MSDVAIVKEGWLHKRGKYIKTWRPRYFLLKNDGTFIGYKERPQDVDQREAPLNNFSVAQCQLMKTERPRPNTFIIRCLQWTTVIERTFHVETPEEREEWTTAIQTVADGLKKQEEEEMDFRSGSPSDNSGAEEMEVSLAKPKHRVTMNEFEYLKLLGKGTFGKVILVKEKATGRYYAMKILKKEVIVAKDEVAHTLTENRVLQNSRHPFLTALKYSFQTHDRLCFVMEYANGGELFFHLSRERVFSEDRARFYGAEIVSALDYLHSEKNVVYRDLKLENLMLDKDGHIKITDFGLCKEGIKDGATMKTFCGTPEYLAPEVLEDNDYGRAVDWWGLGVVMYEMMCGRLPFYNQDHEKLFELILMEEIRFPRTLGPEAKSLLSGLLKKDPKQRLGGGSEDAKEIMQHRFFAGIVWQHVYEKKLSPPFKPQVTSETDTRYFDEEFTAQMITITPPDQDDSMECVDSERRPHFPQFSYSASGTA
protocol.description: Live cell target engagement by NanoBRET competitive probe displacement, AKT1 E17K
assay.context: transfected HEK293 cells, 2 h at 37° C., read-out: AKT1 E17K IC50: GeoMean IC50
measurement.type: IC50

See these solved cases before continuing.
1. COc1c(O)c(C=O)cc(C(=O)N[C@H]2CCc3cc(-n4c(-c5cccnc5N)nc5ccc(-n6cccn6)nc54)ccc32)c1F [Example 214]; < 10 nM
2. Nc1ncccc1-c1nc2c(N3CCC3)cc(-n3cccn3)nc2n1-c1ccc2c(c1)CC[C@@H]2NC(=O)c1ccc(O)c(C=O)c1 [Example 231]; 10 to 100 nM
3. Nc1ncccc1-c1nc2ccc(-n3ccc(-n4cccn4)n3)nc2n1-c1ccc2c(c1)CC[C@@H]2NC(=O)c1ccc(O)c(C=O)c1 [Example 117]; 10 to 100 nM
4. Nc1ncccc1-c1nc2ccc(-n3cccn3)nc2n1-c1ccc2c(c1)CC[C@@H]2NC(=O)c1cc(C=O)c(F)cc1F [Example 188]; 10 to 100 nM
5. Nc1ncccc1-c1nc2ccc(-c3ccccc3F)nc2n1-c1ccc2c(c1)CC[C@@H]2NC(=O)c1ccc(O)c(C=O)c1 [Example 21]; 10 to 100 nM

Here's the next entry for you.
Prompt: Give the measured IC50 of Nc1ncccc1-c1nc2ccc(-c3ccccc3)nc2n1-c1ccc2c(c1)CCC2NCCc1ccc(O)c(C=O)c1 (stereo not drawn) [Example 2] .
Completion: 100 to 2000 nM
